System: CCRF-CEM leukemia
Assay: NCI-60 one-dose screen, 48 h (100 = growth as untreated, 0 = no growth, -100 = all killed)
Conditions: 10 µM unless noted
This is part of a sample that, as a whole, favours compounds with a hit. Of some 83,000 tested, about 20% had one in any assay. The source made the active and inactive calls. Rule for the calls: active = growth percent below 10; inactive = the rest.
Each record here notes measured growth.

# annotated cases, reported growth shown
- O=C(O)C1C[C@](O)(c2ccc(F)cc2)[C@@H](c2ccc(F)cc2)O1 (stereo partly drawn): 82.4% (inactive)
- O=C(O)c1ccc(CO)o1: 106% (inactive)
- C=C(C)[C@@H]1CC[C@]2(CNCCO)CC[C@]3(C)[C@H](CC[C@@H]4[C@@]5(C)CCC(N)[C@@](C)(CO)[C@@H]5CC[C@]43C)[C@@H]12 (stereo partly drawn): -38.7% (active)
- CCCCCCCCN(CCCCCCCC)C(=N)c1ccnc2ccccc12: -42.2% (active)
- CN1CCN(c2ccc(Nc3ncc(Cl)c(NC[C@@H]4CCCO4)n3)cc2)CC1: 28% (inactive)
- Cc1nn(Cc2ccccc2)cc1C(=O)Nc1sc2c(c1C(N)=O)CCC(=O)C2: 9.5% (active)

Now, please, on to the next molecule.
Give the observed growth of `CCOc1ccc(-c2nc3ccc(-c4nc5ccc(N6CCN(C)CC6)cc5[nH]4)cc3[nH]2)cc1OCC` for CCRF-CEM leukemia. 11.3% (inactive)

---

System: BT-549 breast
Assay: NCI-60 one-dose screen, 48 h (100 = growth as untreated, 0 = no growth, -100 = all killed)
Conditions: 10 µM unless noted
Method: Growth inhibition of the BT-549 human tumor cell line is measured as a screen for anti-cancer activity. Cells are grown in 96 well plates and exposed to the test compound for 48 hours. Compounds are tested at a single concentration, which is 10^-5 M for most compounds. The reported endpoint is percent growth (GI% or GIPRCNT), where numbers from 0 - 100% represent growth inhibition, and numbers from -100% - 0 represent cell death. For example, a value of 40 represents 60% growth inhibition. […]
This is part of a sample that, as a whole, favours compounds with a hit. Of some 83,000 tested, about 20% had one in any assay.
Rule: growth below 90% gives yes (1), anything at or above gives no (0).

// below: answered molecules
• CC[C@@H](C[C@H](CCO)c1ccccc1)c1cc2ccccc2o1 = no (0)
• CC12CC(C#N)CCC1O2 (centres undefined) = no (0)
• O=C(NCc1cccnc1)c1cc(-c2csc3c(=O)cc(N4CCOCC4)oc23)cc2c1OCCO2 = yes (1)
• Cc1nc(-c2ccccc2)cc2c(O)c(C(=O)N/N=C/c3ccc(N(C)C)cc3)[nH]c(=O)c12 = no (0)

Just wondering, is growth of `CN1CCN(CCCOc2ccc3nc(Nc4cc(Cl)cc(Cl)c4)ccc3c2)CC1` below 90%? yes (1)

Just wondering, is growth of `CNC(=O)c1c(NC(=O)c2ccc(C(C)(C)C)cc2)sc2c1CCC(=O)C2` below 90%? yes (1)

Just wondering, is growth of `CN1CCC(=C2c3ccccc3C=Cc3ccccc32)CC1` below 90%? no (0)

Just wondering, is growth of `CC(=O)Nc1ccc(-c2cc3c(NCc4ccc(F)cc4)ncnc3s2)cc1` below 90%? yes (1)

Just wondering, is growth of `CS(=O)(=O)c1ccc(N/N=C/c2c(-c3ccc(S(C)(=O)=O)cc3)[nH]c3ccc(F)cc23)cc1` below 90%? yes (1)

Just wondering, is growth of `O=[N+]([O-])c1ccc(-c2cc3c(Nc4ccc(OCc5cccc(Cl)c5)c(Cl)c4)ncnc3s2)cc1` below 90%? yes (1)

Just wondering, is growth of `O=C1Nc2ccccc2/C1=N/N=C/c1c[nH]c2ccccc12` below 90%? no (0)

Just wondering, is growth of `Cc1c(Cl)cccc1NS(=O)(=O)c1ccccc1` below 90%? no (0)

Just wondering, is growth of `CCN(CC)CCCNC(=O)c1ccc(N)cc1O` below 90%? no (0)

---

Tested on: LOX IMVI melanoma
Experiment: NCI-60 one-dose screen, 48 h (100 = growth as untreated, 0 = no growth, -100 = all killed)
Settings: 10 µM unless noted
The panel holds about 83,000 compounds, 20% with a hit somewhere; the sample as a whole holds those more often.
Each record here notes measured growth.
Give the value in % but do not write % after it.

# annotated cases, reported growth shown
- Cc1nc(-c2ccccc2)cc2c(O)c(C(=O)N/N=C/c3ccc(N(C)C)cc3)[nH]c(=O)c12: 75.8
- CC(=O)Nc1cccc(C2=CC(c3ccc(C)cc3)n3ncnc3N2)c1 (centres undefined): 93.8

Check the records and state growth for `CN(C)c1ccc(/C=C2\C=C(c3ccccc3)N(CCc3ccccc3)C2=O)cc1` 48.9

Check the records and state growth for `CN1CCN(c2ccc(Nc3ncc(Cl)c(NC[C@@H]4CCCO4)n3)cc2)CC1` 8.91

Check the records and state growth for `CCNCCNc1cc(-c2cccc(C(F)(F)F)c2)c(C#N)c2nc3ccccc3n12` -85.7

---

Each record here notes measured growth.
System: U251 CNS
Test: NCI-60 one-dose screen, 48 h (100 = growth as untreated, 0 = no growth, -100 = all killed)
Details: 10 µM unless noted
Compounds without any hit were thinned out: in the full panel of roughly 83,000, 20% have a hit. Active and inactive are the calls of the source. How the source made its calls: active means growth percent below 10; inactive means the rest.

# annotated cases, reported growth shown
* O=C(c1ccccc1)c1ccc(N2C(=O)C3C4c5ccccc5C(/C=C/C(=O)c5ccccn5)(c5ccccc54)C3C2=O)cc1 (centres undefined) | 2.15% (active)
* Cc1cc(N(CCCNc2ccnc3cc(Cl)ccc23)Cc2ccccn2)nc(N2CCCC2)n1 | 74.8% (inactive)
* C=C1C(=O)O[C@H]2[C@H]1CC/C(COC(=O)/C=C\C(=O)NCc1ccc(Cn3c(=O)sn(-c4ccc(Cl)cc4)c3=O)cc1)=C\CC[C@@]1(C)O[C@@H]21 | -78.3% (active)

Now, please, on to the next compound.
Give the observed growth of `N[C@H]1CCC[C@@H]1NCCCCN1C(=O)c2cccc3cccc(c23)C1=O` for U251 CNS. 63% (inactive)

---

Each record here notes measured growth.
Tested on: SF-539 CNS
Test: NCI-60 one-dose screen, 48 h (100 = growth as untreated, 0 = no growth, -100 = all killed)
Conditions: 10 µM unless noted
About 83,000 compounds went through this panel and 20% of them were active in at least one assay; those are over-represented in the sample as a whole.
Give the value in % but do not write % after it.

- CCOC(=O)c1cnn2c(-c3ccc(Cl)cc3)nc(NCc3ccccc3)nc12: 10.7
- c1ccc2c(c1)nc(-n1ccnc1)c1nc3ccccc3n12: 66
- Oc1[nH]c2ccccc2c1/C=c1/cc2c(c(-c3ccc(F)cc3)n1)=Nc1ccccc1-2: -65.6
- N#Cc1cnn2c(-c3ccc(Cl)cc3)nc(NC3CC3)nc12: 89.2
- Nc1c(C(=O)Nc2ccccc2)sc2nc3c(cc12)CCCCCC3: -41.8
- NC(N)=N/N=C(/c1ccccc1)c1ccc(N)cc1: 103

Check the records and state growth for N#Cc1c(-c2ccccc2)nc(SCC2CO2)nc1N1CCOCC1 (stereo not given) 85.6

Check the records and state growth for `CCNCCNc1cc(-c2ccc(F)cc2)c(C#N)c2nc3ccccc3n12` -88.4

Check the records and state growth for COc1ccc(C2=NC(=O)NC2c2ccc(OC)cc2)cc1 (stereo not given) 62.4

---

System: U251 CNS
Experiment: NCI-60 one-dose screen, 48 h
Details: 10 µM unless noted
This is part of a sample that, as a whole, favours compounds with a hit. Of some 83,000 tested, about 20% had one in any assay. Activity calls are given as the source filed them. The calls were made as follows: active = growth percent below 10; inactive = the rest.
Entry note: the call must match one of yes for active, no for inactive

• Cn1cc(-c2ccc3ncc(-c4ccc(CC(=O)Nc5cc(C(C)(C)C)nn5C)cc4)cc3c2)cn1 = no
• CC(C)(C)N1CC(OC(N)=O)C1 = no
• CS(=O)(=O)c1ccc(N/N=C/c2c(-c3ccc(S(C)(=O)=O)cc3)[nH]c3ccc(F)cc23)cc1 = no
• COc1ccccc1NC(=O)Nc1ccc(-c2nc3ccccc3o2)cc1 = no
• O=C1CSC(c2ccccc2O)N1c1nnc(Cn2cnnc2)o1 (stereo not given) = no
• COc1ccc(-n2sc(=O)n(Cc3ccc(COC(=O)C(C)c4ccc(CC(C)C)cc4)cc3)c2=O)cc1 (stereo not given) = no
• Clc1ccc2c(NCCCN3CCN(c4nc(-n5ccnc5)nc5ccccc45)CC3)ccnc2c1 = no
• O=C(Nc1ccccn1)[C@H](O)[C@@H](O)C(=O)N1CCOCC1 = no
• CC(C)(C)Nc1c(-c2c3ccccc3cc3ccccc23)nc2ccccn12 = no
• CCCCCOC(=O)c1cccc(NC(=O)CN(CC)CC)c1 = no

Answer briefly: the call reported for `Cc1ccc(S(=O)(=O)Nc2sccc2-c2nc(-c3ccccc3)no2)cc1` in this assay. no

Answer briefly: the call reported for `COc1cc(C(=O)/C=C/c2c(C(F)(F)F)nc3ccccn23)cc(OC)c1OC` in this assay. yes
